Recorded values, source PubChem BioAssay (NCI).

Test system: M14 melanoma
Assay: NCI tumour cell line growth inhibition, 48 h
Kindly state GI50 for each of the entries shown.

# MOLECULE, MEASURED_PARAMETER, REPORTED_RESULT
measured = [
    ("CCN1CCN(Cc2ccc(NC(=O)Nc3nc4ccc(Oc5ccnc(C(=O)NC)c5)cc4s3)cc2C(F)(F)F)CC1", "GI50", "1750 nM"),
    ("NS(=O)(=O)c1ccc(N2N=C3c4ccccc4CC3C2c2cccs2)cc1 (stereo not drawn)", "GI50", "26000 nM"),
]

Next item in the queue.
GI50 in this record for CC1CN(S(=O)(=O)c2oc(-c3ccc(Cl)cc3)nc2C#N)CC(C)O1 (stereo not drawn) : 1620 nM
